This section lists SI CC50/EC50 (YFV) readings for YFV.

Consider the worked cases shown below.
COc1ccc(S(=O)(=O)n2cc(CNc3ccc(Br)cc3)c(-c3ccc(Cl)cc3)n2)cc1 : >5.4
COc1ccc(S(=O)(=O)n2cc(CNc3ccc(Cl)cc3)c(-c3ccc(Br)cc3)n2)cc1 : >4.6
O=S(=O)(c1ccccc1)n1cc(CNc2ccc(Br)cc2)c(-c2ccc(Cl)cc2)n1 : >17.9
COc1ccc(S(=O)(=O)n2cc(CNc3ccc(Cl)cc3)c(-c3ccc(Cl)cc3)n2)cc1 : >6.25
Cc1ccc(-c2nn(S(=O)(=O)c3ccccc3)cc2CNc2ccccc2)cc1 : >8.7
O=S(=O)(c1ccccc1)n1cc(CNc2ccc(Br)cc2)c(-c2ccc(Br)cc2)n1 : >16.1
Cc1ccc(-c2nn(S(=O)(=O)c3ccccc3)cc2CNc2ccc(Cl)cc2)cc1 : >19.6
Cc1ccc(NCc2cn(S(=O)(=O)c3ccccc3)nc2-c2ccc(Br)cc2)cc1 : >20.4
O=S(=O)(c1ccccc1)n1cc(CNc2ccccc2)c(-c2ccc(Cl)cc2)n1 : >13.9
COc1ccc(S(=O)(=O)n2cc(CNc3ccc(C)cc3)c(-c3ccc(Br)cc3)n2)cc1 : >5.5

Fill in the blank: the reported SI CC50/EC50 (YFV) of Cc1ccc(NCc2cn(S(=O)(=O)c3ccccc3)nc2-c2ccc(Cl)cc2)cc1 is ____. >15.2

Fill in the blank: the reported SI CC50/EC50 (YFV) of O=S(=O)(c1ccccc1)n1cc(CNc2ccc(Cl)cc2)c(-c2ccc(Cl)cc2)n1 is ____. >22.7

Fill in the blank: the reported SI CC50/EC50 (YFV) of O=S(=O)(c1ccccc1)n1cc(CNc2ccc(Br)cc2)c(-c2ccccc2)n1 is ____. >16.9

Fill in the blank: the reported SI CC50/EC50 (YFV) of O=S(=O)(c1ccccc1)n1cc(CNc2ccccc2)c(-c2ccc(Br)cc2)n1 is ____. >27.8

Fill in the blank: the reported SI CC50/EC50 (YFV) of O=S(=O)(c1ccccc1)n1cc(CNc2ccc(Cl)cc2)c(-c2ccc(Br)cc2)n1 is ____. >25.0

Fill in the blank: the reported SI CC50/EC50 (YFV) of O=S(=O)(c1ccccc1)n1cc(CNc2ccc(Cl)cc2)c(-c2ccccc2)n1 is ____. >12.3

Fill in the blank: the reported SI CC50/EC50 (YFV) of Cc1ccc(-c2nn(S(=O)(=O)c3ccccc3)cc2CNc2ccc(Br)cc2)cc1 is ____. >27.0

Fill in the blank: the reported SI CC50/EC50 (YFV) of Cc1ccc(NCc2cn(S(=O)(=O)c3ccccc3)nc2-c2ccc(C)cc2)cc1 is ____. >27.8
